# test-system: DD(E) soluble fibrin-derived polypeptide (UniProt P02671)
# measurement-notes: Kd against DD(E) target
Bridge positions count the residues as written; N and C are the ends. Ends that are not written are not given here.
Could you please mark True for values of Kd below 10 µM and False for values at or above it?

binder: LPCDYXGTCLD (1-naphthyl residue (Nal) at position 6; C-terminal amide; N-terminus free) [substituted peptide LPCDYNalGTCLD]
group-label: False

binder: LPCDYYXTCLD (not fully specified; D-alanine at position 7) [D-alanine peptide LPCDYYdATCLD]
group-label: True

binder: H-LACDYYGTCLD-NH2 (disulfide 3-9; SMILES CC(C)C[C@H](NC(=O)[C@@H]1CSSC[C@H](NC(=O)[C@H](C)NC(=O)[C@@H](N)CC(C)C)C(=O)N[C@@H](CC(=O)O)C(=O)N[C@@H](Cc2ccc(O)cc2)C(=O)N[C@@H](Cc2ccc(O)cc2)C(=O)NCC(=O)N[C@@H]([C@@H](C)O)C(=O)N1)C(=O)N[C@@H](CC(=O)O)C(N)=O)
group-label: True

binder: H-LPCDAYGTCLD-NH2 (disulfide 3-9; SMILES CC(C)C[C@H](NC(=O)[C@@H]1CSSC[C@H](NC(=O)[C@@H]2CCCN2C(=O)[C@@H](N)CC(C)C)C(=O)N[C@@H](CC(=O)O)C(=O)N[C@@H](C)C(=O)N[C@@H](Cc2ccc(O)cc2)C(=O)NCC(=O)N[C@@H]([C@@H](C)O)C(=O)N1)C(=O)N[C@@H](CC(=O)O)C(N)=O)
group-label: True

binder: QWECPYGLCWIQ (disulfide 4-9 (inferred)) [synthetic polypeptide …]
group-label: True

binder: H-LPCDYYGVCLD-NH2 (disulfide 3-9 (inferred)) [substituted peptide …]
group-label: False

binder: FHCPYDLCHIL [modified TN6-6 polypeptide …]
group-label: True
